system name: melanocortin 5 receptor (human, UniProt P33032 1-325)
Sequence (P33032 whole entry): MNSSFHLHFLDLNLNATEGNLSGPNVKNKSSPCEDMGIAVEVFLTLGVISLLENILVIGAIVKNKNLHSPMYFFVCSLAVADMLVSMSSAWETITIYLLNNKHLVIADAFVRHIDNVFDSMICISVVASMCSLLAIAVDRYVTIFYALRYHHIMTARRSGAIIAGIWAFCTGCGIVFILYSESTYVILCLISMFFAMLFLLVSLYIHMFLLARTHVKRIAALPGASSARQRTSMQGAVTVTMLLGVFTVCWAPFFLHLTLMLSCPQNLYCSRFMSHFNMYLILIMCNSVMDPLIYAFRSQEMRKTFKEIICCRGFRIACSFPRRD
method: cell-based or functional assay
Bridges are numbered along the chain shown (N, C = ends). [ ]: non-standard residue; d: D form. Pen = CC(C)(S)[C@H](N)C(=O)O; hCys = N[C@@H](CCS)C(=O)O; Dap = NC[C@H](N)C(=O)O
Listed next: entries and their corresponding EC-50 (nM), cAMP accumulation.
observation type: EC-50 (nM), cAMP accumulation

binder	numeric result
Ac-REQ[dF]RW[Dap]-NH2 (lactam 2-7; SMILES CC(=O)N[C@@H](CCCNC(=N)N)C(=O)N[C@H]1CCC(=O)NC[C@@H](C(N)=O)NC(=O)[C@H](Cc2c[nH]c3ccccc23)NC(=O)[C@H](CCCNC(=N)N)NC(=O)[C@@H](Cc2ccccc2)NC(=O)[C@H](CCC(N)=O)NC1=O) [001576C, Ac-Arg-(Glu-Gln-D-Phe-Arg-Trp-Dpr)-NH2]	67.3
Ac-R[hCys]Q[dF]RW[Pen]-NH2 (disulfide 2-7) [001555C, Ac-Arg-(hCys-Gln-D-Phe-Arg-Trp-Pen)-NH2]	124
Ac-R[hCys]T[dF]RW[Pen]-NH2 (disulfide 2-7; SMILES CC(=O)N[C@@H](CCCNC(=N)N)C(=O)N[C@H]1CCSSC(C)(C)[C@@H](C(N)=O)NC(=O)[C@H](Cc2c[nH]c3ccccc23)NC(=O)[C@H](CCCNC(=N)N)NC(=O)[C@@H](Cc2ccccc2)NC(=O)[C@H]([C@@H](C)O)NC1=O) [001574C, Ac-Arg-(hCys-Thr-D-Phe-Arg-Trp-Pen)-NH2]	2050
Ac-R[hCys]N[dF]RW[Pen]-NH2 (disulfide 2-7) [001554C, Ac-Arg-(hCys-Asn-D-Phe-Arg-Trp-Pen)-NH2]	735
Ac-R[hCys]S[dF]RW[Pen]-NH2 (disulfide 2-7; SMILES CC(=O)N[C@@H](CCCNC(=N)N)C(=O)N[C@H]1CCSSC(C)(C)[C@@H](C(N)=O)NC(=O)[C@H](Cc2c[nH]c3ccccc23)NC(=O)[C@H](CCCNC(=N)N)NC(=O)[C@@H](Cc2ccccc2)NC(=O)[C@H](CO)NC1=O) [001556C, Ac-Arg-(hCys-Ser-D-Phe-Arg-Trp-Pen)-NH2]	1700
